Here, compounds appear alongside Ki reported for Type-1 angiotensin II receptor A (Rattus norvegicus, UniProt P25095) in the literature.
endpoint label: Ki

* CCCCOC(=O)NS(=O)(=O)c1sc(CC(C)C)cc1-c1ccc(CN(C)CC#N)cc1 | > 10 µM
* CCCc1nc2c(C)cc(-c3nc4ccccc4n3C)cc2n1CCOc1ccc(CC2SC(=O)NC2=O)cc1C(=O)OC (centres undefined) | > 10 µM
* CCCCOC(=O)NS(=O)(=O)c1sc(CC(C)C)cc1-c1ccc(C(=O)N2CCCCC2)cc1 | > 10 µM
* CCCCOC(=O)NS(=O)(=O)c1sc(CC(C)C)cc1-c1ccc(CC(N)=O)cc1 | > 10 µM
* CCCCOC(=O)NS(=O)(=O)c1sc(CC(C)C)cc1-c1ccc(CN(Cc2cccnc2)C(C)=O)cc1 | > 10 µM
* COC(=O)c1ccccc1-c1ccc(Cn2cnc3ccccc32)cc1 | > 10 µM
* CCCCOC(=O)NS(=O)(=O)c1sc(CC(C)C)cc1-c1ccc(CC(=O)N2CCSC2)cc1 | > 10 µM
* CCCCc1ncc(CNc2cc(N=[N+]=[N-])ccc2C(=O)O)n1Cc1ccc(C(=O)O)cc1 | 0.022 µM
* CCCc1nc2c(C)cc(-c3nc4ccccc4n3C)cc2n1CCOc1ccc(CC(C)(Oc2ccccc2)C(=O)O)cc1 (centres undefined) | 2.23 µM

====

Here, molecules appear alongside Ki reported for Type-1 angiotensin II receptor A (Rattus norvegicus) in the literature.
# tested system: Type-1 angiotensin II receptor A (Rattus norvegicus)
# Sequence (P25095 whole entry): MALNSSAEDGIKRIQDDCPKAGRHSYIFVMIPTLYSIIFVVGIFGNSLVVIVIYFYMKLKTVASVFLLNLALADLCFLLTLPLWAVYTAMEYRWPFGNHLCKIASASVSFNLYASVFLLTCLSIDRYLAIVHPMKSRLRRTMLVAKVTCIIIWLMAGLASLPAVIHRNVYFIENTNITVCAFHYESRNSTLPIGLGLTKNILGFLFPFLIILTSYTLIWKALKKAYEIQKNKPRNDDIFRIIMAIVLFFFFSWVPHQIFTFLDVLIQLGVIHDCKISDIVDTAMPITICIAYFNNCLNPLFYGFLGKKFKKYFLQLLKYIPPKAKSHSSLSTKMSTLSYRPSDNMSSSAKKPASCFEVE
endpoint label: Ki

* CCCc1nc2c(C)cc(-c3nc4ccccc4n3C)cc2n1Cc1ccc(-c2ccccc2C(=O)O)cc1 | 0.00023 µM
* CCCCOC(=O)NS(=O)(=O)c1cc(CC(C)C)ccc1-c1ccc(C(=O)N(CC)CC)cc1 | > 10 µM
* COC(=O)c1ccc(-c2ccc(Cn3cnc4ccc(-c5nc6ccccc6n5C)cc43)cc2)cc1 | > 10 µM
* CCCCOC(=O)NS(=O)(=O)c1sc(CC(C)C)cc1-c1ccc(CN(CC)C(=O)c2cccs2)cc1 | > 10 µM
* CCCCOC(=O)NS(=O)(=O)c1sc(CC(C)C)cc1-c1ccc(CN(C)C(C)=O)cc1 | > 10 µM
* COC(=O)c1ccc(-c2ccc(Cn3cnc4ccc(-c5nc6ccccc6n5C)cc43)cc2)c(C(=O)OC)c1 | > 10 µM
* COC(=O)c1ccc(-c2ccc(Cn3c(C)nc4ccc(-c5nc6ccccc6n5C)cc43)cc2)c(C(=O)OC)c1 | > 10 µM
* CCCc1nc2c(C)cccc2n1Cc1ccc(OCC(=O)OCC)cc1 | > 10 µM
* CCCCOC(=O)NS(=O)(=O)c1ccc(-c2ccccc2)cc1-c1ccc(C(=O)N(CC)CC)cc1 | > 10 µM
* CCCCOC(=O)NS(=O)(=O)c1sc(CC(C)C)cc1-c1ccc(C(=O)N(C)C)cc1 | > 10 µM
* CCCCc1ncc(CNc2ccccc2C(=O)O)n1Cc1ccc(C(=O)NS(=O)(=O)c2ccccc2Cl)cc1 | 0.0025 µM
* CCCCOC(=O)NS(=O)(=O)c1sc(CC(C)C)cc1-c1ccc(CC(=O)NC)cc1 | > 10 µM
* CCCCOC(=O)NS(=O)(=O)c1ccc(CC(C)C)cc1-c1ccc(Cn2ccnc2)cc1 | > 10 µM
* CCCc1nc2c(C)cc(-c3ccccc3)cc2n1CCOc1ccc(CC2SC(=O)NC2=O)cc1C(=O)OC (stereo not drawn) | > 10 µM
* CCCCOC(=O)NS(=O)(=O)c1sc(CC(C)C)cc1-c1ccc(CC(=O)Nc2ccc(C)cc2)cc1 | > 10 µM
* CCCc1nc2c(C)cccc2n1Cc1ccc(/C=C/C(=O)OCC)cc1 | > 10 µM
* CCCc1nc2c(C)cc(-c3nc4ccccc4n3C)cc2n1Cc1ccc(-c2ccc(C(=O)OC)cc2C(=O)OC)cc1 | 0.65 µM
* COC(=O)c1ccccc1-c1ccc(Cn2c(C)nc3ccc(-c4nc5ccccc5n4C)cc32)cc1 | > 10 µM

====

Here, compounds appear alongside pKi reported for Type-1 angiotensin II receptor A (Rattus norvegicus, UniProt P25095) in the literature.
pKi: −log10 of the molar value.
endpoint label: pKi

* CCCCOC(=O)NS(=O)(=O)c1sc(CC(C)C)cc1-c1ccc(CC(=O)NCc2ccccc2)cc1 | < 5.00
* CCCCOC(=O)NS(=O)(=O)c1sc(CC(C)C)cc1-c1ccc(CC(=O)N(C)CCCC)cc1 | < 5.00
* CCCCOC(=O)NS(=O)(=O)c1sc(CC(C)C)cc1-c1ccc(CN(C)C(=O)OCC)cc1 | < 5.00
* CCCCOC(=O)NS(=O)(=O)c1sc(CC(C)C)cc1-c1ccc(CN(C(=O)c2ccccc2)c2ccc(C)cc2)cc1 | < 5.00
* CCCCc1ncc(CNc2ccccc2C(=O)O)n1Cc1ccc(C(=O)O)cc1 | 7.92
* CCCCOC(=O)NS(=O)(=O)c1sc(CC(C)C)cc1-c1ccc(Cn2ccnc2)cc1 | < 5.00
* CCCCN1C(=O)CC2(CCCC2)C(=O)N1Cc1ccc(-c2ccccc2-c2nn[nH]n2)cc1 | 7.85
* CCc1nc2c(C)cc(C)nc2n1Cc1ccc(-c2ccccc2-c2nnn[nH]2)cc1 | 9.35
* CCCCCCNC(=O)Cc1ccc(-c2cc(CC(C)C)sc2S(=O)(=O)NC(=O)OCCCC)cc1 | < 5.00
